# TEST: Stability of emulsion stored at 4° C. (change of particle size)
# Type: physicochemical
# MEASUREMENT_CONDITIONS: one month at 4° C., emulsion sterilized 100° C. 30 min
READOUT_LABEL: Stability of Emulsion

FC(F)(F)C(F)(F)OC(C(F)(F)F)(C(F)(C(F)(F)F)C(F)(F)F)C(F)(C(F)(F)F)C(F)(F)F : excellent
FC(F)(F)C(F)(F)C(F)(F)OC(F)(F)C(F)(F)C(F)(F)C(F)(F)C(F)(F)C(F)(F)C(F)(F)F [Example 18, Perfluoro-1-n-propoxyheptane] : good
FC(F)(F)C(F)(F)C(F)(F)OC(F)(C(F)(C(F)(F)F)C(F)(F)F)C(F)(C(F)(F)F)C(F)(F)F [drawing 62] : excellent
FC(F)(F)OC(F)(C(F)(F)F)C(F)(F)C(C(F)(F)F)(C(F)(F)C(F)(F)F)C(F)(F)C(F)(F)F (centres unmarked) [drawing 63] : good

Where these numbers come from: patent US4943595A
